B1: TRIM43 (parent)
chain: NRFRVEISFHFEVTNHNIRLFEDV

# Variants of: B1
# TEST METHOD NOTES: protein stability index of a GFP-peptide fusion (GPS, HEK-293T) (PSI 1-6); higher = more stable;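 note: lentivirally expressed fusions sorted by FACS into six bins by GFP to DsRed ratio, PSI derived from sequencing read proportions per bin multiplied by bin number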
# ASSAY CONDITIONS: c terminus: a fixed tail appended
Collected protein stability index values appear next to each entry.
MEASURE: protein stability index

[[record]]
residue_change = "N1D"
measure = "protein stability index"
observed_measurement = 3.89

[[record]]
residue_change = "R2I"
measure = "protein stability index"
observed_measurement = 3.39

[[record]]
residue_change = "F21Q"
measure = "protein stability index"
observed_measurement = 3.09

[[record]]
residue_change = "N17D"
measure = "protein stability index"
observed_measurement = 4.85

[[record]]
residue_change = "E22K"
measure = "protein stability index"
observed_measurement = 2.02

[[record]]
residue_change = "L20Q"
measure = "protein stability index"
observed_measurement = 3.28


Values from the supplement of paper PMC10567573
